Every entry's value here was drawn from ChEMBL document CHEMBL4043308.

# PROTOCOL DETAILS: Plasma concentration in BLM-induced C57BL/6 mouse pulmonary fibrosis model at 30 mg/kg, ip qd administered 15 days starting 1 day prior to BLM installation measured 1 hr post last dose by LC-MS/MS method
# Type: ADME, organism-based
READOUT LABEL: concentration at 1 h (ng/mL)
One number for each entry, in ng/mL.

Entry CCCC[C@@H](CCCC(=O)NO)NC(=O)CCCCC(=O)Nc1ccccc1 needs its concentration at 1 h filled in; supply it. 70

* * *

# TESTED ON: Autotaxin (Mus musculus)
# PROTOCOL DETAILS: Inhibition of recombinant mouse ATX expressed in HEK293 cells using LPC 17:0 as substrate after 30 mins by LC-MS/MS method
READOUT LABEL: IC50 (nM)
Give bare numbers, in nM.

Give the reported value of IC50 for this record: O=C(CCN1CCN(C(=O)OCc2cc(Cl)cc(Cl)c2)CC1)c1ccc2[nH]c(=O)oc2c1 1.7

* * *

# TESTED ON: Autotaxin (Mus musculus, UniProt Q9R1E6)
# PROTOCOL DETAILS: Inhibition of mouse ATX-beta using LPC 16:0 as substrate by Amplex Red PLD assay
Field: pIC50. Provide a value for each of the molecules that follow.
Numbers only, as −log10 of the molar value.

// known answers, use as guide
MOLECULE SMILES | OBSERVED RESULT
O=C(CCCCC(=O)Nc1ccc(CC(=O)C(F)(F)C(F)(F)F)cc1)Nc1ccccc1 | 5.52
COC(=O)[C@H](CCC(=O)NO)NC(=O)CCCCC(=O)Nc1ccccc1 | 6.40

// for each molecule in input: emit pIC50
1. COC(=O)[C@H](CCC(=O)NO)NC(=O)CCCCC(=O)Nc1ccc(OC)cc1
2. COC(=O)[C@H](CCCC(=O)NO)NC(=O)CCCCC(=O)Nc1ccccc1

5.35
7.30

* * *

# TESTED ON: Autotaxin (Mus musculus, UniProt Q9R1E6)
# PROTOCOL DETAILS: Inhibition of mouse ATX-beta using LPC 16:0 as substrate by Amplex Red PLD assay
Answer each item with its documented IC50.

A selection of reference data follows.
MOLECULE SMILES | TESTED ON | IC50
O=C(CC[C@H](NC(=O)CCCCC(=O)Nc1ccccc1)C(=O)NO)NO | Autotaxin (Mus musculus, UniProt Q9R1E6) | > 5 µM
CCOc1ccc(NC(=O)CCCCC(=O)N[C@@H](CCC(=O)NO)C(=O)OC)cc1 | Autotaxin (Mus musculus, UniProt Q9R1E6) | > 5 µM
O=C(CCCCC(=O)Nc1ccc(B(O)O)cc1)Nc1ccccc1 | Autotaxin (Mus musculus, UniProt Q9R1E6) | 0.7 µM

Please state, for each entry, its recorded IC50.
1. CCCCCCCCc1ccc(C(=O)Nc2ccc(CC(=O)NO)cc2)cc1
2. COC(=O)[C@H](CCC(=O)NO)NC(=O)CCCCC(=O)Nc1ccc(F)cc1

1. > 5 µM
2. > 5 µM

* * *

# TESTED ON: Autotaxin (Mus musculus)
# PROTOCOL DETAILS: Inhibition of recombinant mouse ATX expressed in HEK293 cells using FS3 as substrate preincubated for 15 mins followed by substrate addition measured after 30 mins
READOUT LABEL: IC50 (nM)
Give bare numbers, in nM.

Write down IC50 measured for item O=C(CCN1CCN(C(=O)OCc2cc(Cl)cc(Cl)c2)CC1)c1ccc2[nH]c(=O)oc2c1 2.8
